- test_target: UniProt P08909
- Sequence (P08909 whole entry): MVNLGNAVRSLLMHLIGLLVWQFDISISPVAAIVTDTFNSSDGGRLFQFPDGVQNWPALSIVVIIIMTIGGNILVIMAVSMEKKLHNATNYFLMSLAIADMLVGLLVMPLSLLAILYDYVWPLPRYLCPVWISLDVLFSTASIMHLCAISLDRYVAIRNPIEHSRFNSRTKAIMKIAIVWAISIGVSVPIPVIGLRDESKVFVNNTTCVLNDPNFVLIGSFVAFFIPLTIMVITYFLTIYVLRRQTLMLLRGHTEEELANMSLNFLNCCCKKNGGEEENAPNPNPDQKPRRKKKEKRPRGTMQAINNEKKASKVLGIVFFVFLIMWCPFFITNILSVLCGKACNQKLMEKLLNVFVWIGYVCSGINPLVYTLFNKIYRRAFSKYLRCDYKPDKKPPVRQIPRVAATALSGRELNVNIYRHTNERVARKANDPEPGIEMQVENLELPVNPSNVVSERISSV
outcome_measure: pKi
pKi here: minus log base 10 of the concentration, concentration in moles per litre.

smiles: CN1CCN(C2=Cc3cc(Cl)ccc3Cn3cccc32)CC1
test_target: UniProt P08909
outcome_measure: pKi
measured_value: 8.42

Please turn your attention to the following entry.
// Cc1ccc2n1Cc1ccccc1C=C2N1CCN(C)CC1 : pKi value = 7.82
